target: T1, recombinant human alphavbeta6 (human, UniProt P06756 31-992; P18564 22-707, limits assumed); test: specificity ELISA on coated integrins, periplasmic extract
T1 construct: Bought, carrier free (R&D Systems 3817-AV/CF); also called aVb6
T1 sequence (P06756 31-992 limits assumed, chain 1 of 2): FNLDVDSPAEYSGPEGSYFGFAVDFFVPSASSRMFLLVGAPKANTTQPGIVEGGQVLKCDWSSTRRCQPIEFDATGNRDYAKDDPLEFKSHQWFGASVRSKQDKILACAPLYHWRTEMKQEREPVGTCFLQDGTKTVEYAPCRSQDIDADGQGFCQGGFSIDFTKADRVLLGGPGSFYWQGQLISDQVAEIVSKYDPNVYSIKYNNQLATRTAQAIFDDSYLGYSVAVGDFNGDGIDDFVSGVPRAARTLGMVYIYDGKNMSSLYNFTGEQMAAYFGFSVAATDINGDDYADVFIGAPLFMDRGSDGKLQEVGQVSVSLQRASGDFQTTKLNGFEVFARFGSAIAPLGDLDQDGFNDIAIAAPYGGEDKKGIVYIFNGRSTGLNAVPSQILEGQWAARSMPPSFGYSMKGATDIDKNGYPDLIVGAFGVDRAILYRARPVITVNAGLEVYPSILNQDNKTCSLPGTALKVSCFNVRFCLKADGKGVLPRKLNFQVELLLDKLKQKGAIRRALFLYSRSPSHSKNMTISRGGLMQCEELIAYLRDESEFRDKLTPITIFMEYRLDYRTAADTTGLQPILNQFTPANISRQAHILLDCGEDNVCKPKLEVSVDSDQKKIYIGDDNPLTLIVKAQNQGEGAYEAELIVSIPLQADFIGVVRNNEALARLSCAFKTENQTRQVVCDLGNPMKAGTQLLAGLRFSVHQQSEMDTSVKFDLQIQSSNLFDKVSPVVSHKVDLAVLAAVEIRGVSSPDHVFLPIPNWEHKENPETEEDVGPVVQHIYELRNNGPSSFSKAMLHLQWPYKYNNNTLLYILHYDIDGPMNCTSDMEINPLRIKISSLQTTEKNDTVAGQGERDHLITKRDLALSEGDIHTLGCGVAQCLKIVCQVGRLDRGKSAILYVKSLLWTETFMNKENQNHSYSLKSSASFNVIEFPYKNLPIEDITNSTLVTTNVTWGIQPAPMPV
T1 sequence (P18564 22-707 limits assumed, chain 2 of 2): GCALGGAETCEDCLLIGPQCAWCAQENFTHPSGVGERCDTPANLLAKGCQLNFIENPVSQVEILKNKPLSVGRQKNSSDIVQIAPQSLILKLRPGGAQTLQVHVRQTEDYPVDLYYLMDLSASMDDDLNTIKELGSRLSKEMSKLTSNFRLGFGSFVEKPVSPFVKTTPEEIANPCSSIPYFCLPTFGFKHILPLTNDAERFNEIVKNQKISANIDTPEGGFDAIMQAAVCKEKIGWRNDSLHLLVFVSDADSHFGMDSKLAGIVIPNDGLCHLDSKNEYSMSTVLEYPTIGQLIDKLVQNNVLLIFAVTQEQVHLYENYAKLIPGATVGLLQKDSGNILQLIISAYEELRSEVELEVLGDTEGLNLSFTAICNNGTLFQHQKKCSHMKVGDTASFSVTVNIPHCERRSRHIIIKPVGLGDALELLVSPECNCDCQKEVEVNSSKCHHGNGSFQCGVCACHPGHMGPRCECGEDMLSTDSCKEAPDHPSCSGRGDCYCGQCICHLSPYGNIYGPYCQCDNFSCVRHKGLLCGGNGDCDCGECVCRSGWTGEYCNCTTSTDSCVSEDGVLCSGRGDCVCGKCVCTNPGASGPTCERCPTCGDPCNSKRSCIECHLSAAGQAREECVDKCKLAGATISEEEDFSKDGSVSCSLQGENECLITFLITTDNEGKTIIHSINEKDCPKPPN
Readout name: binding result

binder="140-G8 (VHH) VHH: EVQLVESGGGSVQAGGSLRLSCTASGSIFSINDMGWYRQPPGEQRELVATLTSSDSTKYADSVKSRFTISRDNAKNTVYLQMNSLKPEDTAVYYCNAVINRRGDGRNWSREYWGQGTQVTVSS" readout_name="binding result" result=binds
binder="140-H8 (VHH) VHH: EVQLVESGGGLVQAGGSLRLSCAASISANAIDVVSWYRQAPGKPRELAASITSAGRIKYAESVKGRFGISRDNAKNTVSLQMNSLKPEDTAVYYCNALYRNAIYWGQGTQVTVSS" readout_name="binding result" result=binds
